Just for reference, the supplement of paper PMC10567573 is where these values come from.

- Assay text: protein stability index of a GFP-peptide fusion (GPS, HEK-293T) (PSI 1-6); higher = more stable;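 further: 24-mer peptide tiles fused after GFP, lentivirally expressed, FACS-sorted into six equal bins by GFP/DsRed ratio, decoded by Illumina sequencing, PSI is the read-weighted mean bin number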
- Experimental context: treatment: DMSO; c terminus: a fixed tail appended
Measurement kind: protein stability index
Enter the number alone.

Worked cases, protein stability index given:
Sequence record	protein stability index
RTLKSYLGLTNQSRRYNRKEPAEF [ZNF649]	3.09
VARVLRGCLENMPEADCIPKEQLS [PLK2]	3.42
QASKLRASKEEKEDWLSHALSRKK [FBF1]	4.5
QFNVSGPGLLEEDNQWMTQINRLQ [NECAB1]	3.02
HENAVQGSAVEVQTYQPPWKALSE [ISL2]	4.15

Prompt: Fill in the blank: the reported protein stability index of IELQGVPNDEVHPLLGVKGDGKSK [RBBP5] is ____.
Completion: 5.14

Prompt: Fill in the blank: the reported protein stability index of MAAPEERDLTQEQTEKLLQFQDLT [FAF2] is ____.
Completion: 5.13

Prompt: Fill in the blank: the reported protein stability index of NVIDRMKESSPSGSKSQRYSGAYG [CHCHD3] is ____.
Completion: 4.13

Prompt: Fill in the blank: the reported protein stability index of GKKVSNQRFEVIEFDDGSGSVLRI [PTPRD] is ____.
Completion: 2.38

Prompt: Fill in the blank: the reported protein stability index of LNWKMTLCLLVAWSIVGMAVVKGI [SLC6A17] is ____.
Completion: 2.61

Prompt: Fill in the blank: the reported protein stability index of TCSTRFVSGGSAGGYGGGVSCGFG [KRT13] is ____.
Completion: 2.46

Prompt: Fill in the blank: the reported protein stability index of QRGRVISLWERLEFVNGWYILLVT [MCOLN1] is ____.
Completion: 2.79

Prompt: Fill in the blank: the reported protein stability index of QTAVQFQQYAAQQYPGNYEQQQIL [ACBD3] is ____.
Completion: 3.71

---

Items are presented alongside their recorded protein stability index.
- Assay text: protein stability index of a GFP-peptide fusion (GPS, HEK-293T) (PSI 1-6); higher = more stable
- Experimental context: treatment: DMSO; c terminus: a fixed tail appended
Enter the number alone.

Prompt: Fill in the blank: the reported protein stability index of QLCEKAPKEATVMCEQCDVFYCDP [TRIM9] is ____.
Completion: 4.33

Prompt: Fill in the blank: the reported protein stability index of RVPAGIFKHTLSISRALLSDVVPE [MFSD9] is ____.
Completion: 2.82

Prompt: Fill in the blank: the reported protein stability index of AKAELPKYKSFNRTAMPYGGYEKA [MYOZ1] is ____.
Completion: 3.22

Prompt: Fill in the blank: the reported protein stability index of GKAYRFLFGFSAVSIMYLVLVLAV [JAGN1] is ____.
Completion: 2.22

Prompt: Fill in the blank: the reported protein stability index of TDRIAAAQYSVTGSAVARAVCKAT [SNAP91] is ____.
Completion: 3.9

Prompt: Fill in the blank: the reported protein stability index of SHAIHVEEQSDQSFSSLEPDNEQL [IQUB] is ____.
Completion: 5.38

Prompt: Fill in the blank: the reported protein stability index of VRQLERENAELESRIQEWYEFQIP [KRT36] is ____.
Completion: 3.41

Prompt: Fill in the blank: the reported protein stability index of LEEMILPLMVASAQSGERECHIVV [BTBD10] is ____.
Completion: 2.35

Prompt: Fill in the blank: the reported protein stability index of GDLFNGRYHVIRKLGWGHFSTVWL [SRPK2] is ____.
Completion: 2.19

Prompt: Fill in the blank: the reported protein stability index of GDAFGSSASEPQPASQAASSSSAS [SNAP91] is ____.
Completion: 5.48

Prompt: Fill in the blank: the reported protein stability index of EDEAGGRFVAFSGEGQSLRKKGRK [UFD1] is ____.
Completion: 5.51

Prompt: Fill in the blank: the reported protein stability index of HFWQLFNALTLFNLAQDPQCKEWQ [TMEM120A] is ____.
Completion: 3.17

Prompt: Fill in the blank: the reported protein stability index of CVTPNGRPISGTAVAHKTPRCPGS [SMOC2] is ____.
Completion: 2.98

Prompt: Fill in the blank: the reported protein stability index of ESTFMYLTLDLPTAPLYKDEKEQL [USP39] is ____.
Completion: 3.4

Prompt: Fill in the blank: the reported protein stability index of YIVAGSARQHALYIWEKSIGNLVK [RBBP5] is ____.
Completion: 2.22

Prompt: Fill in the blank: the reported protein stability index of SCEVSEENCERREAFWAEWKDLTL [TCAP] is ____.
Completion: 4.16

Prompt: Fill in the blank: the reported protein stability index of PPTYPTKYFGCELGAQTQFDVKND [EIF5] is ____.
Completion: 4.35

Prompt: Fill in the blank: the reported protein stability index of EKNRKDAEDWFFSKTEELNREVAT [KRT17] is ____.
Completion: 4.5

Prompt: Fill in the blank: the reported protein stability index of HTRSITSCCFDPDSQRVASVSLDR [WDR88] is ____.
Completion: 3.53

Prompt: Fill in the blank: the reported protein stability index of GSWGSFQLPGLLNFGEFKCSDSDK [CLCN6] is ____.
Completion: 3.99

Prompt: Fill in the blank: the reported protein stability index of YILLVTSDVLTISGTIMKIGIEAK [MCOLN1] is ____.
Completion: 3.09

Prompt: Fill in the blank: the reported protein stability index of DTQVNPVGSVSVDCGPSRADRCSP [FBXO34] is ____.
Completion: 5.09
